study-system: DnaE1 (Mycobacterium tuberculosis, UniProt P9WNT7)
Sequence (P9WNT7 1-1184): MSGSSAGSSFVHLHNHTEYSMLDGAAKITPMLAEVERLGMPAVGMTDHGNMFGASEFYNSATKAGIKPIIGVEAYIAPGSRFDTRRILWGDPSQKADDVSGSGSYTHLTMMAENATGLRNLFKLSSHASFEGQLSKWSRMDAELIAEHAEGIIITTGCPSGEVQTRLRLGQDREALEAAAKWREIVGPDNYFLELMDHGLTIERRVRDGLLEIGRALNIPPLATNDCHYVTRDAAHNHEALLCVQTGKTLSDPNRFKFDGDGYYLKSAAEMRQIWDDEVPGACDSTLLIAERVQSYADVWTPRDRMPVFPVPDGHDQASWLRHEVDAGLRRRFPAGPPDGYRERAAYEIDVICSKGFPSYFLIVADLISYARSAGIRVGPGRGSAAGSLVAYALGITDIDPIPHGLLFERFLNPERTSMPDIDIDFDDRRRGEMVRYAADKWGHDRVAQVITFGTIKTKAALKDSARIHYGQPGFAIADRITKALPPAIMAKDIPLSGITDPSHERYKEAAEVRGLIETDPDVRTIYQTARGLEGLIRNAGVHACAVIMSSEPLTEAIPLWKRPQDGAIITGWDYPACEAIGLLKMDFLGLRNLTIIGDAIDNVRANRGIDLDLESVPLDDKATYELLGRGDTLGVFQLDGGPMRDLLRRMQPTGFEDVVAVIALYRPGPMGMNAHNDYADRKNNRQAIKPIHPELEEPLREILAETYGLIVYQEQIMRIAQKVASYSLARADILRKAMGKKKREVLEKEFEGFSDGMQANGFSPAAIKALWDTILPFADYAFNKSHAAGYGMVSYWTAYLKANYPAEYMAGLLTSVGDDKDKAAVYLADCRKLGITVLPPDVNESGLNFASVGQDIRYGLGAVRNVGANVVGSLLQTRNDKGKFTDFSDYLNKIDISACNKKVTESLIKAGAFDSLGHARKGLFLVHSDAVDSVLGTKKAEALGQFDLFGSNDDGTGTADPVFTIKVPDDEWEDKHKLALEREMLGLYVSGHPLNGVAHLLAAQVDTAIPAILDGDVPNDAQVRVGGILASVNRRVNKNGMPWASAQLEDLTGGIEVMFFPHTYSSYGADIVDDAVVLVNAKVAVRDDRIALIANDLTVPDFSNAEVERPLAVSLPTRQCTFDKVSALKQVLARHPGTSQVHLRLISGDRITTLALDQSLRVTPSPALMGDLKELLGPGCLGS
experimental-endpoint: IC50 (nM)
Give just the number in nM; leave the unit off.

The recorded IC50 for entry COC1CC2C=CC3C4OC2(/C(C)=C/C(C)C(C(C)O)OC1=O)C3C(O)C(C)C4OC(=O)c1ccc[nH]1 (stereo not shown) equals 125

Origin of measurements: paper PMC8922275
